Values from patent US20240092784A1

- target entity: human SPR (Homo sapiens (Human), UniProt P35270)
- Sequence (P35270 whole entry): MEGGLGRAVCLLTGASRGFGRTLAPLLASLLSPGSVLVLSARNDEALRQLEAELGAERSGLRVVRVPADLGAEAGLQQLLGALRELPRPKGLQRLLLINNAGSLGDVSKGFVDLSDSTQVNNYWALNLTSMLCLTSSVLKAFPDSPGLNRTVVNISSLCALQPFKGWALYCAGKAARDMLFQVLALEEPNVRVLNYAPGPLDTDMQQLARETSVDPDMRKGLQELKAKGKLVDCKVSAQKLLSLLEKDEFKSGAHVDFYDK
- measurement notes: Evaluation Example 2: Measurement of human SPR inhibitory activity (seven concentrations, sepiapterin absorbance at 420 nm)
- Type: biochemical
- test conditions: Evaluation Example 2, seven concentrations 0.14 nM to 100 nM, 240 minutes at room temperature, read-out: IC50
pIC50: −log10 of the molar value.
# pIC50 annotations

compound: O=C(NC1CC1)c1c(O)n2ncc(/C=C/C(=O)N3C[C@@H]4C[C@H]3CO4)c2n(CC2(F)CC2)c1=O [Synthesis Example 375]
pIC50: 9.19
//
compound: Cc1nn2c(O)c(C(=O)NC3CC3)c(=O)n(CC(C)C)c2c1/C=C/C(=O)N1CC[C@H](F)C1
pIC50: 9.03
//
compound: CC(C)Cn1c(=O)c(C(=O)NC2CC2)c(O)n2ncc(/C=C/C(=O)N3CC[C@@H](O)C3)c12
pIC50: 9.15
//
compound: CC(C)(C)Cn1c(=O)c(C(=O)NC2CC2)c(O)n2nc(Nc3cnc(C(=O)N4CCC(F)(F)CC4)cn3)cc12 [Synthesis Example 355]
pIC50: 8.96
//
compound: CC(C)Cn1c(=O)c(C(=O)NC2CC2)c(O)n2ncc(/C=C/C(=O)N3C4CCC3COC4)c12
pIC50: 9.19
//
compound: Cc1nn2c(O)c(C(=O)NC3CC3)c(=O)n(CC(C)C)c2c1/C=C/C(=O)N1CCC[C@@H]1c1ccccc1 [Synthesis Example 673]
pIC50: 8.87
//
compound: CC(C)(C)Cn1c(=O)c(C(=O)NC2CC2)c(O)n2nc3c(c12)CN(C1CCC(F)(F)CC1)C(=O)N3 [Synthesis Example 407]
pIC50: 8.91
//
compound: CC(C)Cn1c(=O)c(C(=O)NC2CC2)c(O)n2nc(-c3cccnc3N)c(/C=C/C(=O)N3CCOCC3)c12
pIC50: 9.08
//
compound: CC(C)(C)Cn1c(=O)c(C(=O)NC2CC2)c(O)n2nc(-c3cnccc3C#N)cc12 [Synthesis Example 294]
pIC50: 8.65
//
compound: Cc1nn2c(O)c(C(=O)NC3CC3)c(=O)n(CC(C)C)c2c1/C=C/C(=O)N(C)Cc1cccnc1 [Synthesis Example 637]
pIC50: 9.05
//
compound: CC(C)Cn1c(=O)c(C(=O)NC2CC2)c(O)n2nc(N)c(/C=C/C3CCCCC3)c12 [Synthesis Example 441]
pIC50: 8.32
//
compound: CO[C@H]1CCN(C(=O)/C=C/c2c(C)nn3c(O)c(C(=O)NC4CC4)c(=O)n(CC(C)C)c23)C1
pIC50: 8.96
//
compound: Cc1nn2c(O)c(C(=O)NC3CC3)c(=O)n(CC(C)C)c2c1/C=C/C(=O)N1CCOc2ncccc21 [Synthesis Example 676]
pIC50: 9.04
//
compound: CC(C)Cn1c(=O)c(C(=O)NC2CC2)c(O)n2ncc(/C=C/C(=O)N3CCC[C@@H]3c3ccccc3)c12
pIC50: 8.78
